Value source: the supplement of paper PMC7726561

# tgt: HLA-A*02:01
# assay info: thermal melting temperature (Tm) of peptide-HLA complex; higher = more thermostable pHLA complex;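 note: lysates heated 10 min at 37–73 °C, complexes pulled down with pan-HLA I antibody, peptide signal by DIA-MS relative to 37 °C, Tm where half the complex is unfolded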
# cond: C1R-A*02:01
Over roughly 1,100 sequences, “thermal melting temperature (Tm) of peptide-HLA complex” has its median near 58; the lowest 2% begin near 42. This excerpt belongs to a sample that is enriched for the lowest values.

| input sequence | thermal melting temperature |
| --- | --- |
| NQIEDNDDFQL | 42 °C |
| YLPDIIKDQKA | 55.4 °C |
| VILESDPQQVV | 40.1 °C |
| GVIDGHIYAV | 61.7 °C |
